# study_target: human Nav1.5 channels stably expressed in HEK 293 cells (Homo sapiens)
# Construct: expressed in transfected cells
# Sequence (Q14524 whole entry): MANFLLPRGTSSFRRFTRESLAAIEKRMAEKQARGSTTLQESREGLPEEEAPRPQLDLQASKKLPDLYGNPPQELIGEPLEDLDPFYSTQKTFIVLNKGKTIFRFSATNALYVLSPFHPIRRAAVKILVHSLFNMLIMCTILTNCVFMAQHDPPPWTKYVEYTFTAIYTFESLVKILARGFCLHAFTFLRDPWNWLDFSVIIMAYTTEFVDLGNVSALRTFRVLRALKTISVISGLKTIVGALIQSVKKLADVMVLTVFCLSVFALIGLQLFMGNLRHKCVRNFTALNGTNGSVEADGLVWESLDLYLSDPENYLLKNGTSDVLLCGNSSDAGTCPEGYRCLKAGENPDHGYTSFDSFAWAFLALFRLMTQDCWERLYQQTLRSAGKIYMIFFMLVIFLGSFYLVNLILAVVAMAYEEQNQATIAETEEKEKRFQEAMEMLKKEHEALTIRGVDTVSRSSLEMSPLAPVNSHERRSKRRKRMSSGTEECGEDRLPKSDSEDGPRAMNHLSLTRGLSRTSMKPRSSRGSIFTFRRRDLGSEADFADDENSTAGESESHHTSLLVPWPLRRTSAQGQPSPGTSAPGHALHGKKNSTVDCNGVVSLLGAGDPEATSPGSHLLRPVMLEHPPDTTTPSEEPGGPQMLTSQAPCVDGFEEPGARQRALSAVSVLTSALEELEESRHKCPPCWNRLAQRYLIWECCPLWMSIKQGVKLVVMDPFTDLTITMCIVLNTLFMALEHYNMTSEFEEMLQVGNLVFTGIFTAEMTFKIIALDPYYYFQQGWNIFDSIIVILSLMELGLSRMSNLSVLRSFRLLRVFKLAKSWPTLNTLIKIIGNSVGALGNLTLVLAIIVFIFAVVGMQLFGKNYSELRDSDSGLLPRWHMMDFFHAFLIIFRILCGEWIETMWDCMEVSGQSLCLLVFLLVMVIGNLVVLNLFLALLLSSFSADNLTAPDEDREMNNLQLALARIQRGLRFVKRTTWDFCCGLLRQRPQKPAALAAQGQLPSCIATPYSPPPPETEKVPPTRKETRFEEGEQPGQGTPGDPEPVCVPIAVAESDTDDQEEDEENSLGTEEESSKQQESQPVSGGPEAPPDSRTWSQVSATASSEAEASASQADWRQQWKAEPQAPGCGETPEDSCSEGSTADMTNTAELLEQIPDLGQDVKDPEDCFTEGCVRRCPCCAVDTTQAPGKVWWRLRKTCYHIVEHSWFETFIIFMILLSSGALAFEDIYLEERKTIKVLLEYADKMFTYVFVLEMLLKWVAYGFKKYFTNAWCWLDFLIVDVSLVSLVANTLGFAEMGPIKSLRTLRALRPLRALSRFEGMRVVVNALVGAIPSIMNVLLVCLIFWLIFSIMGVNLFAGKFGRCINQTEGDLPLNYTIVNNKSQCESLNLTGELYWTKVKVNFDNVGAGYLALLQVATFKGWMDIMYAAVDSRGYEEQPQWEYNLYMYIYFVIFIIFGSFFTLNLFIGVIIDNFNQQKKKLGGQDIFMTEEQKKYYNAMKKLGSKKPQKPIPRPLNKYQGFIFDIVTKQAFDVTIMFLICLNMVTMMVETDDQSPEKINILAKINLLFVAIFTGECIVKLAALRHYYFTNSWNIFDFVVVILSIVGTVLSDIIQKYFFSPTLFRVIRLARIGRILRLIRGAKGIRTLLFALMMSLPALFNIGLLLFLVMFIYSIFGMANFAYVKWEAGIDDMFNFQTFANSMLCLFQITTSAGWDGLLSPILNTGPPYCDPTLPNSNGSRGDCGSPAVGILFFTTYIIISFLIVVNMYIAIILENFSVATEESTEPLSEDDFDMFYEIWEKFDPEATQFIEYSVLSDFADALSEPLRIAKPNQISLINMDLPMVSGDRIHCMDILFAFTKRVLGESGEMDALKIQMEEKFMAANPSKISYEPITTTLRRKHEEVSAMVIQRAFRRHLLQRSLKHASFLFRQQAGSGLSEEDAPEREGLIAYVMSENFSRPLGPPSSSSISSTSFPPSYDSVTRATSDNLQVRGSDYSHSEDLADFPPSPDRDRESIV
# protocol_details: PatchXpress 7000 automated patch-clamp, sodium current
# Assay type: cell-based
# condition_context: selectivity over Nav1.5
Task for the reader: assign each of the following compounds its reported ratio of Nav 1.5:Nav 1.7 potency, determined by PatchXpress measurement.
Give bare numbers.

{"compound": "C=CCC(c1ccccc1)n1c(=O)oc2cc(S(=O)(=O)Nc3ncns3)ccc21 (stereo not shown)", "recorded_number": 177}

Quick one: give me ratio of Nav 1.5:Nav 1.7 potency, determined by PatchXpress measurement for each item below, same order please.
1. C[C@H](c1ccccc1)n1c(=O)oc2cc(S(=O)(=O)Nc3nccs3)ccc21
2. C[C@H](c1ccccc1C#CCN)n1c(=O)oc2cc(S(=O)(=O)Nc3nccs3)c(F)cc21
3. O=c1oc2cc(S(=O)(=O)Nc3ncns3)ccc2n1Cc1cccc2cc(Cl)ncc12
4. C[C@H](c1ccccc1C#CCNS(C)(=O)=O)n1c(=O)oc2cc(S(=O)(=O)Nc3ncns3)c(Cl)cc21
5. C[C@H](c1ccccc1)n1c(=O)oc2cc(S(=O)(=O)Nc3nccs3)c(F)cc21
6. C[C@H](c1ccccc1C#CC1CNC1)n1c(=O)oc2cc(S(=O)(=O)Nc3ncns3)c(F)cc21

187
1267
144
175
88
973

For every item below, please supply its ratio of Nav 1.5:Nav 1.7 potency, determined by PatchXpress measurement.
1. O=c1oc2cc(S(=O)(=O)Nc3ncns3)c(F)cc2n1Cc1cccc2c1CC(NCCO)CC2 (racemic)
2. CC(=O)NC1CCc2cccc(Cn3c(=O)oc4cc(S(=O)(=O)Nc5ncns5)c(F)cc43)c2C1 (stereo not shown)
3. C[C@H](c1cccc(-c2ccn(C)n2)c1)n1c(=O)oc2cc(S(=O)(=O)Nc3ncns3)c(F)cc21
4. O=c1oc2cc(S(=O)(=O)Nc3ncns3)ccc2n1Cc1cccc(Cl)c1
5. O=c1oc2cc(S(=O)(=O)Nc3nccs3)c(F)cc2n1C1CCCc2c(F)cccc21 (stereo not shown)

221
172
86
59
75

###

# study_target: human Nav1.5 channels stably expressed in HEK 293 cells (Homo sapiens)
# Construct: expressed in transfected cells
# protocol_details: PatchXpress 7000 automated patch-clamp, sodium current
# Assay type: cell-based
# condition_context: selectivity over Nav1.5
Classification field: yes (1) = ratio of Nav 1.5:Nav 1.7 potency, determined by PatchXpress measurement at or over 300; no (0) = ratio of Nav 1.5:Nav 1.7 potency, determined by PatchXpress measurement under 300.

Would you please look over these solved cases?
{"compound": "C[C@H](c1ccccc1C#CC1CCCCN1)n1c(=O)oc2cc(S(=O)(=O)Nc3ncns3)c(F)cc21 (stereo partly shown)", "answer_label": "yes (1)"}
{"compound": "CNC1CCc2cccc(Cn3c(=O)oc4cc(S(=O)(=O)Nc5ncns5)c(F)cc43)c2C1 (racemic)", "answer_label": "yes (1)"}
{"compound": "O=c1oc2cc(S(=O)(=O)Nc3ncns3)ccc2n1Cc1cccc2c1CN(CC1CC1)CC2", "answer_label": "no (0)"}
{"compound": "Nc1cccc2c1CCCC2n1c(=O)oc2cc(S(=O)(=O)Nc3nccs3)c(F)cc21 (stereo not shown)", "answer_label": "no (0)"}
{"compound": "CC(c1cccc(-c2ccnn2C)c1)n1c(=O)oc2cc(S(=O)(=O)Nc3ncns3)c(F)cc21 (stereo not shown)", "answer_label": "no (0)"}
{"compound": "C[C@H](c1ccccc1C#CC1(N)CCCCC1)n1c(=O)oc2cc(S(=O)(=O)Nc3ncns3)c(F)cc21", "answer_label": "yes (1)"}
{"compound": "C[C@H](c1ccccc1CN1CCC(F)(F)C1)n1c(=O)oc2cc(S(=O)(=O)Nc3ncns3)c(F)cc21", "answer_label": "no (0)"}
{"compound": "O=c1oc2cc(S(=O)(=O)Nc3ncns3)c(F)cc2n1[C@H]1CC2(CCC2)Oc2ccc(F)cc21", "answer_label": "no (0)"}

Consider now this further compound.
I'd appreciate it if you could say whether C[C@H](c1cccc2c1CNCC2)n1c(=O)oc2cc(S(=O)(=O)Nc3ncns3)ccc21 has ratio of Nav 1.5:Nav 1.7 potency, determined by PatchXpress measurement at least equal to 300.
yes (1)
